experiment-summary: Tigecycline plasma PK and % F after PO enteric-coated capsule in dogs
Assay type: in vivo, Beagle dogs
experimental-context: female, beagle, dog, plasma, po, 30 mg, Tigecycline Plasma Concentration, Time (min) 24.0; PO 30 mg enteric-coated capsule with 500 mg CA and 100 mg LLC, SC430; individual dogs
Protocol: Adult beagle dogs weighing approximately 9 to 15 kg were used in the study. […] Room temperature was set to be maintained between approximately 20±5° C. Relative humidity was monitored but not controlled. […] The unknown concentration in dog plasma samples was determined by interpolation of the peak area ratios of analyte:internal standard versus the ratio of their nominal concentrations into the regression line obtained from calibration standards spiked in pooled dog plasma. […]
property-label: concentration at 24 min (ng/mL)

compound_string=CN(C)c1cc(NC(=O)CNC(C)(C)C)c(O)c2c1C[C@H]1C[C@H]3[C@H](N(C)C)C(O)=C(C(N)=O)C(=O)[C@@]3(O)C(O)=C1C2=O numeric_readout=0

----------
experiment-summary: Tigecycline plasma PK and % F after intraduodenal (ID) injection in anesthetized rats
Format: in vivo, Sprague-Dawley Rats
experimental-context: female, Sprague-Dawley, rat, plasma, […], RA869, ID, 26 mM LLC only
property-label: Tmax (min)

compound="CN(C)c1cc(NC(=O)CNC(C)(C)C)c(O)c2c1C[C@H]1C[C@H]3[C@H](N(C)C)C(O)=C(C(N)=O)C(=O)[C@@]3(O)C(O)=C1C2=O [Tigecycline]" property_label=Tmax numeric_readout=10

----------
experiment-summary: Tigecycline plasma PK and % F after intraduodenal (ID) injection in anesthetized rats
Format: in vivo, Sprague-Dawley Rats
experimental-context: female, Sprague-Dawley, rat, plasma, 4.8 mg/kg, pH 3.5, ID, 100 mM CA (pH 3.5), 26 mM LLC, 4.8 mg/kg (RA851); read-out: Cmax, Mean
property-label: Cmax (ng/mL)

compound_string=CN(C)c1cc(NC(=O)CNC(C)(C)C)c(O)c2c1C[C@H]1C[C@H]3[C@H](N(C)C)C(O)=C(C(N)=O)C(=O)[C@@]3(O)C(O)=C1C2=O property_label=Cmax readout_units=ng/mL numeric_readout=710

----------
experiment-summary: Kanamycin and tobramycin plasma PK after IV bolus in dogs
Format: in vivo, Beagle dogs
experimental-context: female, Beagle, dog, plasma, iv, 0.1 mg, single IV bolus 0.10 mg; read-out: AUC, Mean (converted)
property-label: AUC (ng·h/mL)

compound_string=NC[C@H]1O[C@H](O[C@H]2[C@H](O)[C@@H](O[C@H]3O[C@H](CO)[C@@H](O)[C@H](N)[C@H]3O)[C@H](N)C[C@@H]2N)[C@H](O)[C@@H](O)[C@@H]1O numeric_readout=54.2

----------
experiment-summary: Tigecycline plasma PK and % F after PO enteric-coated capsule in dogs
Assay type: in vivo, Beagle dogs
experimental-context: female, beagle, dog, plasma, po, 45 mg, 45 mg Formulated (500 mg CA, 100 mg LLC) enteric coated capsule, Study 2 (SC430); mean (% CV); read-out: AUC(0-t)
Experimental: Adult beagle dogs weighing approximately 9 to 15 kg were used in the study. […] Room temperature was set to be maintained between approximately 20±5° C. Relative humidity was monitored but not controlled. […] The unknown concentration in dog plasma samples was determined by interpolation of the peak area ratios of analyte:internal standard versus the ratio of their nominal concentrations into the regression line obtained from calibration standards spiked in pooled dog plasma. […]
property-label: AUC(0-t) (ng·h/mL)

molecule="CN(C)c1cc(NC(=O)CNC(C)(C)C)c(O)c2c1C[C@H]1C[C@H]3[C@H](N(C)C)C(O)=C(C(N)=O)C(=O)[C@@]3(O)C(O)=C1C2=O [Tigecycline]" numeric_readout=574

----------
experiment-summary: Tigecycline plasma PK and % F after intraduodenal (ID) injection in anesthetized rats
Type: in vivo, Sprague-Dawley Rats
experimental-context: female, Sprague-Dawley, rat, plasma, 4.8 mg/kg, pH 3.5, RA867, ID, 400 mM CA/26 mM LLC pH 3.5, 4.8 mg/kg; read-out: Cmax, mean
property-label: Cmax (ng/mL)

compound_string=CN(C)c1cc(NC(=O)CNC(C)(C)C)c(O)c2c1C[C@H]1C[C@H]3[C@H](N(C)C)C(O)=C(C(N)=O)C(=O)[C@@]3(O)C(O)=C1C2=O numeric_readout=488

----------
experiment-summary: Tigecycline plasma PK after IV bolus in dogs
Format: in vivo, Beagle dogs
experimental-context: female, Beagle, dog, plasma, intravenous, 1 mg, Tigecycline Plasma Concentration, 20 min; 1 mg IV in PBS (0.08 mg/kg), SC427; mean
property-label: concentration at 20 min (ng/mL)

compound="CN(C)c1cc(NC(=O)CNC(C)(C)C)c(O)c2c1C[C@H]1C[C@H]3[C@H](N(C)C)C(O)=C(C(N)=O)C(=O)[C@@]3(O)C(O)=C1C2=O [Tigecycline]" numeric_readout=26.1

----------
experiment-summary: Tigecycline plasma PK and % F after PO enteric-coated capsule in dogs
Format: in vivo, Beagle dogs
experimental-context: female, beagle, dog, plasma, po, 30 mg, PO 30 mg unformulated enteric-coated capsule ([…]), SC430; individual dogs; read-out: % F
property-label: bioavailability

compound_string=CN(C)c1cc(NC(=O)CNC(C)(C)C)c(O)c2c1C[C@H]1C[C@H]3[C@H](N(C)C)C(O)=C(C(N)=O)C(=O)[C@@]3(O)C(O)=C1C2=O result=0%

----------
experiment-summary: Tigecycline plasma PK and % F after PO enteric-coated capsule in dogs
Format: in vivo, Beagle dogs
experimental-context: female, beagle, dog, plasma, po, 15 mg, Tigecycline Plasma Concentration, 90 min; PO 15 mg unformulated enteric-coated capsule, SC424; individual dogs
property-label: concentration at 90 min (ng/mL)

compound="CN(C)c1cc(NC(=O)CNC(C)(C)C)c(O)c2c1C[C@H]1C[C@H]3[C@H](N(C)C)C(O)=C(C(N)=O)C(=O)[C@@]3(O)C(O)=C1C2=O [Tigecycline]" property_label="concentration at 90 min" numeric_readout=0

----------
experiment-summary: Tigecycline plasma PK and % F after PO enteric-coated capsule in dogs
Assay type: in vivo, Beagle dogs
experimental-context: female, beagle, dog, plasma, po, 30 mg, PO 30 mg enteric-coated capsule with 500 mg CA and 100 mg LLC, SC430; calculated from IV PK data of SC431; mean excluding animal 5256; read-out: % F
property-label: bioavailability

compound_string=CN(C)c1cc(NC(=O)CNC(C)(C)C)c(O)c2c1C[C@H]1C[C@H]3[C@H](N(C)C)C(O)=C(C(N)=O)C(=O)[C@@]3(O)C(O)=C1C2=O result=14.9%

----------
experiment-summary: Tigecycline plasma PK and % F after PO enteric-coated capsule in dogs
Format: in vivo, Beagle dogs
experimental-context: female, beagle, dog, plasma, po, 30 mg, Tigecycline Plasma Concentration, Time (min) 1.3; PO 30 mg enteric-coated capsule with 500 mg CA and 100 mg LLC, SC430; mean
property-label: concentration at […]

compound="CN(C)c1cc(NC(=O)CNC(C)(C)C)c(O)c2c1C[C@H]1C[C@H]3[C@H](N(C)C)C(O)=C(C(N)=O)C(=O)[C@@]3(O)C(O)=C1C2=O [Tigecycline]" result="51.2 ng/mL"

----------
experiment-summary: Tigecycline plasma PK and % F after PO enteric-coated capsule in dogs
Format: in vivo, Beagle dogs
experimental-context: female, beagle, dog, plasma, po, 45 mg, Tigecycline Plasma Concentration, Time (min) 0.3; PO 45 mg enteric-coated capsule with 500 mg CA and 100 mg LLC, SC430; individual dogs
Protocol: Adult beagle dogs weighing approximately 9 to 15 kg were used in the study. […] Room temperature was set to be maintained between approximately 20±5° C. Relative humidity was monitored but not controlled. […] The unknown concentration in dog plasma samples was determined by interpolation of the peak area ratios of analyte:internal standard versus the ratio of their nominal concentrations into the regression line obtained from calibration standards spiked in pooled dog plasma. […]
property-label: concentration at 0.3 min (ng/mL)

molecule="CN(C)c1cc(NC(=O)CNC(C)(C)C)c(O)c2c1C[C@H]1C[C@H]3[C@H](N(C)C)C(O)=C(C(N)=O)C(=O)[C@@]3(O)C(O)=C1C2=O [Tigecycline]" property_label="concentration at 0.3 min" numeric_readout=0

----------
experiment-summary: Tigecycline plasma PK and % F after PO enteric-coated capsule in dogs
Format: in vivo, Beagle dogs
experimental-context: female, beagle, dog, plasma, po, 15 mg, Study 1 (SC424); 15 mg Formulated enteric coated capsule (500 mg citric acid, 100 mg LLC), oral, dogs, N=8; mean (% CV); sampling 4 h; read-out: Cmax
property-label: Cmax (ng/mL)

compound_string=CN(C)c1cc(NC(=O)CNC(C)(C)C)c(O)c2c1C[C@H]1C[C@H]3[C@H](N(C)C)C(O)=C(C(N)=O)C(=O)[C@@]3(O)C(O)=C1C2=O property_label=Cmax readout_units=ng/mL numeric_readout=75.5

----------
experiment-summary: Tigecycline plasma PK and % F after PO enteric-coated capsule in dogs
Type: in vivo, Beagle dogs
experimental-context: female, beagle, dog, plasma, po, 30 mg, Tigecycline Plasma Concentration, […]; PO 30 mg unformulated enteric-coated capsule, SC430; individual dogs
Experimental: Adult beagle dogs weighing approximately 9 to 15 kg were used in the study. […] Room temperature was set to be maintained between approximately 20±5° C. Relative humidity was monitored but not controlled. […] The unknown concentration in dog plasma samples was determined by interpolation of the peak area ratios of analyte:internal standard versus the ratio of their nominal concentrations into the regression line obtained from calibration standards spiked in pooled dog plasma. […]
property-label: concentration at 24 hr

molecule="CN(C)c1cc(NC(=O)CNC(C)(C)C)c(O)c2c1C[C@H]1C[C@H]3[C@H](N(C)C)C(O)=C(C(N)=O)C(=O)[C@@]3(O)C(O)=C1C2=O [Tigecycline]" result="0 ng/mL"
